This collection of values is drawn from PubChem BioAssay (NCI).

- Tested on: MDA-MB-231 breast
- PROCEDURE_DETAILS: NCI tumour cell line growth inhibition, 48 h
Can you tell me GI50 for the items I'm about to list?

Param item = `CCN1CCC(Oc2c(C#N)ncc3[nH]c4ncccc4c23)CC1` ; retrieve measured GI50.
21.5 µM

Any idea what GI50 was measured for `O=C1Nc2ccccc2/C1=C/C(=N/c1nnc(-c2ccccc2)s1)c1ccccc1` ?
1.92 µM

Quick check: GI50 of `COc1ccc2c(c1)C(=O)c1c-2n(CCCCl)c(=O)c2cc(OC)c(OC)cc12` ?
> 100 µM

What measured GI50 goes with `N#Cc1c(-c2ccccc2)cc(-c2ccccc2)n(CC(=O)NO)c1=O` ?
4.75 µM

Look at this compound and give its reported GI50. `COc1ccc(/C=C(\C#N)c2ccc(OC)cc2)cc1`
33.6 µM

Need GI50 of `Cc1cc(-c2ncc(-c3cccnc3)cc2/C=C/c2ccccc2)cnc1-c1cccnc1` , thanks.
4.76 µM

###

- Test system: RXF 393 renal
- PROCEDURE_DETAILS: NCI tumour cell line growth inhibition, 48 h; in the data active means GI50 below about 0.43 µM; inactive means the rest
Select the correct class. Options are 1 for active, 0 for inactive and nothing else.

Test call, this molecule: `COc1cc(/C=N/Nc2ncnc3[nH]ncc23)ccc1O`
0

Just curious, what result did `Cc1cc(C)c(-c2cc(O)c(-c3c(C)cc(C)cc3C)cc2O)c(C)c1` get here?
0

What is the recorded call for this molecule in the test? `NCCOc1ncccc1/C=C1\c2ccccc2-c2ccc(F)cc21`
0

Entry `O=C(NCCCCNC(=O)OCc1ccc2c(Cl)cc(Cl)c(O)c2n1)OCc1ccc2c(Cl)cc(Cl)c(O)c2n1` : call = ?
0

Called result for `Cc1ccc(-c2c(C#N)[n+](=O)c3cc(Cl)c(Cl)cc3n2[O-])cc1`
0

For `N#Cc1c(-c2ccccc2)cc(-c2ccccc2)n(CC(=O)NO)c1=O` , which call appears in the assay record?
0

Hi, sorry to bother you, what did the test record for `Nc1cc2c([nH]c[n+]2CC#CCCl)c(SCC#CCCl)n1` ?
0

// return assay outcome for COc1ccc(C2CC(c3cc(Cl)c(C)cc3O)=NN2c2ccc(S(N)(=O)=O)cc2)cc1OC (stereo not given)
0

Would you mind telling me which call this test gave `COc1ccc2nc(NNC(=O)c3cnccn3)c3cccn3c2c1` ?
0

What is the recorded call for this molecule in the test? `c1ccc(-c2c(-c3ccccc3)[n+](Cc3ccc4ccccc4c3)c(-c3cccc4ccccc34)n2Cc2ccc3ccccc3c2)cc1`
1

###

- Test system: BT-549 breast
- PROCEDURE_DETAILS: NCI tumour cell line growth inhibition, 48 h
MEASUREMENT_NAME: TGI

// lookup TGI for `CN(C)CCn1nc2c3c(c(C(=O)NCCCN(C)CCCNC(=O)c4ccc5c6c(nn5CCN(C)C)-c5ccccc5Nc46)ccc31)Nc1ccccc1-2`
1.65 µM

Consider the compound shown here: NC1(C(=O)O)CCCC1C(=O)O (stereo not given) What is its recorded TGI?
> 100 µM

Reported TGI for `CCCCNc1nc2nc[nH]c2c(=O)[nH]1` : what is it?
> 100 µM

Endpoint output: TGI of `O=S1CCN(Cc2ccc(-c3ccc4ncnc(Nc5ccc(OCc6ccccc6)c(Cl)c5)c4c3)o2)CC1` . Value?
> 20.5 µM

Any idea what its TGI is? The compound is O=C1Cc2c([nH]c3ccccc23)C2(CC3CCCCN13)OCCO2 (stereo not given)
> 100 µM
